- Assayed system: T1, human CD36 ectodomain (residues 35-439), C-terminal 8xHis and biotinylated BAP tag (human, UniProt P16671 35-439, biotin on the BAP tag (in vitro, BirA ligase))
- T1 construct: CD36, human, ectodomain residues 35-439; Construct for SPR; vector pHLsec-8H; also called CD36 wild-type; w.t; source: HEK293T, purified (TALON, size-exclusion chromatography), biotinylated in vitro with BirA; not shown: BAP tag, C-terminal, kept
- T1 sequence (P16671 35-439): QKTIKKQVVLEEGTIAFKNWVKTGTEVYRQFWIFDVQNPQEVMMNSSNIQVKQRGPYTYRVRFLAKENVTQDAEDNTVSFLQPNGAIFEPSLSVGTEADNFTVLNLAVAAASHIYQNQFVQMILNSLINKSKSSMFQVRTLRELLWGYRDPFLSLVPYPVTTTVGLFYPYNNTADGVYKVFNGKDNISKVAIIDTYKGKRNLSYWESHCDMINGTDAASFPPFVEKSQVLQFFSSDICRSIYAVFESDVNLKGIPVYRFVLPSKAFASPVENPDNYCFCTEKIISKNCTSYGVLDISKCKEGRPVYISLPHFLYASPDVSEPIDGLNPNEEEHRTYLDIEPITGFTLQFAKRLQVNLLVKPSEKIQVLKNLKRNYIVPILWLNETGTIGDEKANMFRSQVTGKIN
- Run description: SPR; biotinylated CD36 (wild type or F153A) immobilised on a CAPture chip to ~700 RU; CIDRα domains as analytes, two-fold dilutions from 400 nM (Supplementary Figure 10: 400 nM only), 240 s injection, 300 s dissociation; 25 °C, 20 mM HEPES pH 7.5, 0.15 M NaCl, 0.005% Tween20; affinities from equilibrium binding, one site-binding model
- Condition info: both partners purified
Assay endpoint: pKd
One number for each entry, as −log10 of the molar value.

Below are worked cases with known answers.
>>> readout_value("IT4var15 CIDRα3.5 domain (domain or fragment, CIDRα3.5 domain of the PfEMP1 IT4var15, Plasmodium falciparum; also called CIDRα3.5 IT4var15; IT4var15 (α3.5)) PGCGVELIGNEWKEKNKGECKGGKRYNIPKGTKHNVIPVLSFGDEHKEIIEKIEQFCAESNSDSSKLTEQWKCYYGDKEYEVCTLENRNKSEEDPEEIQKTFHNFFYFWIRHLLNDSIEWRDKINNCIEKAKEGKCKNECKTDCGCFQRWIGKKKEEWGEIKKHFKTQDGFSIFGNNYDFVLENVLNIDELFQDITEAYGNSQKIQGIKDTLAKKKTQAADDATEQKNTIDLLFEYDSEEAEKCKKIQEEC")
8.52
>>> readout_value("IT4var45 CIDRα2.9 domain (domain or fragment, CIDRα2.9 domain of the PfEMP1 IT4var45, Plasmodium falciparum; also called CIDRα2.9 IT4var45; IT4var45 (α2.9)) PWCGVNGTKGNWTPKNDDDCKPGNEYKNYENTQIPILTGDKTKSEIVERYRKFCKNNGKNGANGREGGVGGSENGAASNSDNATTGYCGTNNNDKDPSLCEKWTCYYKKKEKNDGKKAINFCVLQDDKVGKSQEKSMHYNSFFWDWVYHMLHDSLDWRKQLGRCINKKEETKCIGSCNKKCECFAKWVGHKQQEWEQIKKHFLKQDDIGQETNCDPMVTLEILLDIDELLKNIKDTHANADDIDRIQNMLQQAGFDGGVAALVGRCTEGFVAEKDTTIDKFLEKELQEAEKCLETHKEKC")
7.64
>>> readout_value("MAL6P1.252 CIDRα2.1 domain (domain or fragment, CIDRα2.1 domain of the PfEMP1 MAL6P1.252, Plasmodium falciparum; also called CIDRα2.1 MAL6P1.252) PWCGVKPGGPPWKDNDIDSCGKKEISFSDKDTTDISILSTDRAKKNILQKLENFCRDTEHINHDIWKCHYENTDNDNCILQNENTGSEKQKIMPFDAFFFLWLTQMLDDSIEWRKKLKTCINNEKPTNCIRGCKKPCECFERWVEQKEEEWISIEKHFDKQRDISEEERYITLEYILNEFFMDKIEKAYGIEKSKELKEKLKSNKGHGIIRDTEHSQDAIKILLEHELEDAKKCTETHNDEKC")
8.44

Below are some binders; for each one, tell me its pKd.
1. IT4var30 CIDRα2.10 domain (domain or fragment, CIDRα2.10 domain of the PfEMP1 IT4var30, Plasmodium falciparum; also called CIDRα2.10 IT4var30; IT4var30 (α2.10)) PWCGIEEQKVDGKWKAKNNGECAKVENKIYDPKKTTTIEILTGDNEKFGIYEKYNKFCANGKNGVTSGAPDTAPGKNGNQIVTWQCYYDKKKRSGQNNDNCVEGTWEKFTGKQTVKSYNVFFWDWVYHMLHDSLEWRERLNSCINNAKSQNCKNNKCNRECGCFAKWVVKKKDEWDKIKDHFNKQENIGQNVGFIEFNHYGVLEGVLDKDELLKNIKDTHADAKDIERIDKMLQQAGVVGGGRGGENNTIIDKFLQEEERFAKDCQQKQEEC
2. IT4var24 CIDRα2.2 domain (domain or fragment, CIDRα2.2 domain of the PfEMP1 IT4var24, Plasmodium falciparum; also called CIDRα2.2 IT4var24; IT4var24 (α2.2)) PLCGVNGPKGNWTDIEDKECTLVEKKKYDSNNTTNIDILTADKSQKNILQKYNKFCKNGANDEKSATPTANGGGQIKNWQCYYDESKESGQNNNCILGKWEDFTGNEDVTSYNVFFYNSIIEMLNDSIEWKDKLNICINNKTGKCRKVCKNPCECYKRWIEKKKTELEKIKDHFRKQKDIGDAAQREMTLNITLNNNFLNDIKDAYPVKQQLQKIEERLKDKMQEDFIFERTKTSIDKFLQEEEQFAEKCIEKHKC

[7.26, 7.80]
